Tested on: P. falciparum 3D7 gametocytes
Test: alamarBlue gametocyte viability assay, strain 3D7
Type: cell-based, Plasmodium falciparum
Conditions: Malaria Box; DMSO set at 0%, 100 nM epoxomicin set at -100%
assay.endpoint: Max Resp (%)
The reply should contain only the number, in %.

Example compounds with recorded Max Resp:
For the compound COc1ccccc1C(=O)ON=C(N)Cc1cccc2ccccc12 [MMV666686] , what Max Resp is on record?
-50

For the compound O=C(Nc1ccc(-c2nc3ccccc3[nH]2)cc1)c1ccc(Cl)c(Cl)c1 [MMV665840] , what Max Resp is on record?
-16

For the compound CCOc1ccc2c(c1)CN(Cc1ccc(Cl)cc1)CO2 [MMV000443] , what Max Resp is on record?
-54

Now examine the next entry.
For the compound CCC(C)NCC(O)(c1ccc(Cl)cc1)c1ccc(Cl)cc1 (stereo not shown) [MMV665928] , what Max Resp is on record?
-78

Data provenance: paper PMC3894558
